Task for the reader: assign each of the following sequences its reported shrunken log2 fold change.
system: Escherichia coli TOP10; test: shrunken log2 fold change of peptide-encoding DNA abundance (4.5 h post-induction vs induction); higher = less antimicrobial activity (less host growth inhibition); details: time post-induction: 4.5 h; library: site-saturation at positions 5, 18, 19, 20;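 further: peptides expressed intracellularly from a pBAD plasmid library in pooled LB shake-flask culture, induced with 0.3% L-arabinose, DNA abundance read by NGS, three biological replicates, DESeq2 with apeglm shrinkage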
Answer field: number only, no words.

Consider "RRIRARPPRLPRPRPRPPDVPRP" . Its measured shrunken log2 fold change is 0.655

Consider "RRIRMRPPRLPRPRPRPTHKPRP" . Its measured shrunken log2 fold change is 0.275

Consider "RRIRKRPPRLPRPRPRPVGVPRP" . Its measured shrunken log2 fold change is 0.515

Consider "RRIRNRPPRLPRPRPRPPWTPRP" . Its measured shrunken log2 fold change is 0.272

Consider "RRIRCRPPRLPRPRPRPTDSPRP" . Its measured shrunken log2 fold change is -0.118

Consider "RRIRLRPPRLPRPRPRPKSAPRP" . Its measured shrunken log2 fold change is 0.139

Consider "RRIRARPPRLPRPRPRPHTLPRP" . Its measured shrunken log2 fold change is -0.213

Consider "RRIRVRPPRLPRPRPRPKEMPRP" . Its measured shrunken log2 fold change is -0.131
